Measured ED50 by item
Tested on: cutaneous anaphylaxis
test_protocol: Passive cutaneous anaphylaxis (PCA) in rats
Type: in vivo, male rats
experimental_setup: Rattus norvegicus, iv
metric_name: ED50 (mg/kg)

>>> reported_value("Cn1c(=O)c2nc(C(=O)O)cn2c2ccccc21")
0.031
>>> reported_value("CCCn1c(=O)c2nc(C(=O)O)cn2c2ccccc21")
0.01
>>> reported_value("CCCCn1c(=O)c2nc(C(=O)O)cn2c2ccccc21")
0.023
>>> reported_value("CCn1c(=O)c2nc(C(=O)O)cn2c2ccccc21")
0.01
>>> reported_value("O=C(O)c1cn2c(n1)c(=O)[nH]c1ccccc12")
0.16

====

Overview of reported log10(ED50) across a group of molecules:
System: cutaneous anaphylaxis
test_protocol: Passive cutaneous anaphylaxis (PCA) in rats
Format: in vivo, male rats
experimental_setup: Rattus norvegicus, po
metric_name: log10(ED50) (log10 of the value in mg/kg)

>>> reported_value("CCOC(=O)c1cn2c(n1)c(=O)n(CC)c1ccccc12 [Example 5]")
-0.80
>>> reported_value("CCCCn1c(=O)c2nc(C(=O)O)cn2c2ccccc21 [Example 10]")
-0.23
>>> reported_value("Cn1c(=O)c2nc(C(=O)O)cn2c2ccccc21 [Example 4]")
0.11
>>> reported_value("CCn1c(=O)c2nc(C(=O)O)cn2c2ccccc21 [Example 6]")
-0.35
>>> reported_value("O=C(O)c1cn2c(n1)c(=O)[nH]c1ccccc12 [Example 2]")
0.30
>>> reported_value("CCCn1c(=O)c2nc(C(=O)O)cn2c2ccccc21 [Example 8]")
-0.62
